Value source: ChEMBL document CHEMBL5620426

Assay: Clearance in fasted Sprague-Dawley rat at 1 mg/kg, iv measured for 24 hrs by LC-MS/MS analysis
Assay type: ADME, organism-based
Settings: in vivo
metricName: clearance (mL/min/kg)
Give bare numbers, in mL/min/kg.

[
  {
    "inputSmiles": "CC(C)N1CCN(c2ccc3[nH]c(-c4n[nH]cc4Nc4ncnc5[nH]ccc45)nc3c2)CC1",
    "clearance (mL/min/kg)": 33.3
  }
]

Enquiry: Please supply the value of reported clearance for the item CN1CCN(c2ccc3[nH]c(-c4n[nH]cc4Nc4ncnc5[nH]ccc45)nc3c2)CC1
Return: 51.7

* * *

Test: Half life in fasted Sprague-Dawley rat at 1 mg/kg, iv measured for 24 hrs by LC-MS/MS analysis
Type: ADME, organism-based
Settings: in vivo
So I've got a bunch of compounds here, and I need their half-life values.
# output: number + unit

[
  {
    "inputSmiles": "CC(C)N1CCN(c2ccc3[nH]c(-c4n[nH]cc4Nc4ncnc5[nH]ccc45)nc3c2)CC1",
    "half-life": "6.4 h"
  }
]

API: the following record is the query input.
Enquiry: Please supply the value of reported half-life for the item CN1CCN(c2ccc3[nH]c(-c4n[nH]cc4Nc4ncnc5[nH]ccc45)nc3c2)CC1
Return: 2.47 h
